pIC50: −log10 of the molar value.
Literature-derived pIC50 for Receptor-type tyrosine-protein kinase FLT3 (Homo sapiens, UniProt P36888) follows.

Worked examples, 4 compounds total:
Nc1cc(Oc2ccc(NC(=O)Nc3ccc(CN4CCNCC4)c(C(F)(F)F)c3)cc2)ncn1 ... 7.42
CCc1nc2c(N)ncc(-c3cnn(C4CCN(C(C)C)CC4)c3)c2nc1N[C@@H]1CC[C@H](O)C1 ... ≥ 8.00
Oc1ccc(/C=C/c2cc(/C=C/c3ccccc3)[nH]n2)cc1 ... > 7.30
Oc1ccc(/C=C/c2cc(-c3ccccc3Cl)n[nH]2)cc1 ... 6.30 to 7.30

Batch request: pIC50 per item, same order as input.
1. COc1ncc(F)cc1CNc1ccc(Cc2c[nH]c3ncncc23)c(F)n1
2. COC[C@H](C)Nc1ncc2c(OC3CCOCC3)ncc(-c3ccc(N)nc3)c2n1
3. O=C1Nc2cc(NC(=O)c3cccn(-c4ccc(F)cc4)c3=O)ccc2/C1=C/c1ccc[nH]1
4. CCN(CC)CCOc1ccc2cc1COC/C=C/COCc1cccc(c1)-c1ccnc(n1)N2
5. COC[C@H](C)Nc1ncc2c(-c3cnn(C(C)(C)C(=O)N4CCOCC4)c3)cc([C@H]3CC[C@@H](O)CC3)n2n1
6. Cc1ccc(C(=O)NC(=O)Nc2ccc3c(c2)NC(=O)/C3=C\c2ccc[nH]2)cc1
7. CCc1nc2c(N)ncc(-c3cnn(-c4ncc(C(C)(C)O)cn4)c3)c2nc1N[C@@H]1CC[C@H](O)C1
8. C[C@@H](CC(F)(F)F)Nc1ncc2c(-c3cnn(C(C)(C)C(=O)C4COC4)c3)cc([C@H]3CC[C@@](C)(O)CC3)n2n1

Response:
1: ≥ 5.00; 2: 5.00 to 6.00; 3: 8.07; 4: ≥ 6.00; 5: 6.00 to 7.00; 6: < 6.00; 7: ≥ 8.00; 8: ≥ 7.00
